- Test system: K-562 leukemia
- protocol: NCI-60 one-dose screen, 48 h (100 = growth as untreated, 0 = no growth, -100 = all killed)
- setupConditions: 10 µM unless noted
- Protocol: Cells are grown in 96 well plates and exposed to the test compound for 48 hours. Compounds are tested at a single concentration, which is 10^-5 M for most compounds. The reported endpoint is percent growth (GI% or GIPRCNT), where numbers from 0 - 100% represent growth inhibition, and numbers from -100% - 0 represent cell death. For example, a value of 40 represents 60% growth inhibition. A value of 0 means no net growth occurred over the course of the experiment. […]
Compounds without any hit were thinned out: in the full panel of roughly 83,000, 20% have a hit.
Label met when growth is at or above 20%; otherwise label not met.

compound	classLabel
COc1ccc(Br)c2ccccc12	met
C#CC[C@@H]1C[C@]2(C)[C@H]3CC[C@@H]4[C@H]5C(C(=C)C)CC[C@]5(C(=O)NCCCN5CCN(CCCN)CC5)CC[C@@]4(C)[C@]3(C)CC[C@H]2C(C)(C)[C@H]1OC(C)=O (stereo not given in full)	not met
Cc1[nH]nc2ccc3nc(-c4ccc5[nH]ncc5c4)c4c(c3c12)CCCC4	not met
Cc1cc(C)cc(NC(=O)Cn2nncc2CN2C(=O)CSC2=O)c1	met
C=CCn1c(SCC(=O)Nc2ccc(/C(C)=N\O)cc2)nnc1-c1cc(-c2ccc(Cl)cc2)nc2ccccc12	not met
FC(F)(F)c1ccc(/C=N/Nc2nnc3n2N=C(c2ccc(Cl)cc2)CS3)cc1	met
Clc1cc(Br)ccc1-c1ccc(CNCC2CCNCC2)o1	not met
Cc1cc(-c2nnc(/C=C/c3ccc4c(c3)OCO4)o2)n[nH]1	met
Oc1c(-c2cc(C(F)(F)F)[nH]n2)cc(Cl)c(OCc2ccc(Cl)cc2)c1-c1ccc(Cl)c(C(F)(F)F)c1	not met
CCn1c(CN2CCN(Cc3ccccc3)CC2)nc2cc(NC(=O)c3cccs3)ccc21	not met

----------
List of growth values.
- Tested on: SF-295 CNS
- protocol: NCI-60 one-dose screen, 48 h (100 = growth as untreated, 0 = no growth, -100 = all killed)
- setupConditions: 10 µM unless noted
- Description: Cells are grown in 96 well plates and exposed to the test compound for 48 hours. Compounds are tested at a single concentration, which is 10^-5 M for most compounds. The reported endpoint is percent growth (GI% or GIPRCNT), where numbers from 0 - 100% represent growth inhibition, and numbers from -100% - 0 represent cell death. For example, a value of 40 represents 60% growth inhibition. A value of 0 means no net growth occurred over the course of the experiment. […]
Compounds without any hit were thinned out: in the full panel of roughly 83,000, 20% have a hit.

compound	growth (%)
CC[C@H](Nc1nc(N)nc(C2CC2)c1C#N)c1nc2cccc(NCc3ccc(C(=O)NO)cc3)c2c(=O)n1-c1ccccc1	-26.9
O=C(/C=C/c1cc([N+](=O)[O-])ccc1Cl)c1ccccc1	95.9
COc1cc2c(cc1OC)C(=O)OC2	102
CC(=O)c1c(C)nc(-c2cc(C)cc(Cl)c2)nc1-c1cccc(Oc2ccccc2)c1	77.3
Fc1ccc2c(CN3CCO[C@H](COc4cccc(Cl)c4)C3)c[nH]c2c1	41.1
Cc1nc([C@H]2CC[C@H]3[C@@H]4CCC5=CC(=O)CC[C@]5(C)[C@H]4CC[C@]23C)cs1	46.1
CCCCN(CCCC)CCC(=O)c1ccc(OC)c2ccccc12	100
c1ccc(-c2[nH]c3ccccc3c2-c2ccccc2)cc1	87.9
CCCCn1c(C)nc2cc(Nc3nc(Cl)nc4nc[nH]c34)ccc21	74.5
COc1ccc(/C=C(/C(=O)N2CCN(c3ccccc3)CC2)c2cc(OC)c(OC)c(OC)c2)cc1O	7.72
CCCCCCCCCCCCCCCCCC1=NC(C)(C)CN1C(C)(C)CO	54.3
COc1cccc(OCC(O)CN2CCN(c3ccccc3)CC2)c1 (stereo not drawn)	113
CC(C)[C@H](CN)NC[C@H](C)NS(=O)(=O)c1ccc(C(C)(C)C)cc1	104
Cc1cc(O)c(C2=NN(c3ccc(S(N)(=O)=O)cc3)C(c3ccc(Cl)cc3)C2)c(C)c1Cl (stereo not drawn)	20.4
Nc1c(C(=O)c2ccc(Br)cc2)sc2nc3c(cc12)CCCC3	98.2
C[C@@H]1C[C@H](N)C[C@H](c2ccncc2NC(=O)c2ccc(F)c(-c3c(F)cccc3F)n2)C1	71.9
CC(=O)N(C)c1ccc(Nc2cc(C)[nH]c3ccc4ncnc4c23)cc1	76.5
[Ag].[Ag].[NH-]S(=O)(=O)c1ccc(N=Nc2cc(N=Nc3ccc(S([NH-])(=O)=O)cc3)c3c(NC(=O)C(Cl)Cl)cccc3c2OC(=O)C(Cl)Cl)cc1.[c-]1nccs1.[c-]1nccs1	81.6
CNCc1cccc2c1OCCOCCOCCC(C)S(=O)(=O)c1ccc(cc1)-c1cnc(N)c(n1)C(=O)N2 (stereo not drawn)	98.8
Cc1cc(C)c2c(n1)sc1c(Nc3ccc(O)cc3)ncnc12	18.3
COc1cc(C2C=C(C)N=C3SC=NN32)cc(OC)c1OC (stereo not drawn)	107
CCCCCCCCCC1=NC(C)(C)CN1C(C)(C)CO	122
CCCCc1n(Cc2ccc3ccccc3n2)cc[n+]1Cc1ccc2ccccc2n1	25.2
COc1cc(C2CC(c3cccc(Nc4ccnc5cc(Cl)ccc45)c3)=NN2c2ccccc2)cc(OC)c1OC (stereo not drawn)	31.5
CC(C)(C)CC(C)(C)NCc1cc(C(C)(C)C)cc(CNC(C)(C)CC(C)(C)C)c1O	57.7
Cc1cc(C)c(C#N)c(SCC(=O)c2sc3c(C#N)c(C)cc(C)[n+]3c2[O-])n1	-52.3
Oc1c(C(c2ccc(F)cc2)N2CCCCC2)ccc2cncnc12 (stereo not drawn)	-1.59
COc1ccc(C2=Nn3c(nnc3-c3ccc(Cl)cc3N)SC2)cc1	94.3
